Recorded IC50 by entry
- STUDY_SYSTEM: human ENT1 (Homo sapiens)
- Sequence (Q99808 whole entry): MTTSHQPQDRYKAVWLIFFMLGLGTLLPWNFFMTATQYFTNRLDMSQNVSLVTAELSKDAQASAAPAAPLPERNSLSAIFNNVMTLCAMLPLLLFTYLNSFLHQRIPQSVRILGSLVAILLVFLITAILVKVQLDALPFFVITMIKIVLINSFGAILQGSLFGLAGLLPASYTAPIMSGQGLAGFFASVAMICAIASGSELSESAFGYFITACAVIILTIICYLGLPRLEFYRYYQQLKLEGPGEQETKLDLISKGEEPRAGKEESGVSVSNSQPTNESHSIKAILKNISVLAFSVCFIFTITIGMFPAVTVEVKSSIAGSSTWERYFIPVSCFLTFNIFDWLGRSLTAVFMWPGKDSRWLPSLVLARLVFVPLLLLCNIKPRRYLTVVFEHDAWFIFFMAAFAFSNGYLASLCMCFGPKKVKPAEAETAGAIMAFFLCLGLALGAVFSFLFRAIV
- ASSAY_NOTES: ENT1 binding assay (competition with Sahenta-DY647 on JAR cells)
- Design: JAR cells expressing ENT1 were bought from ATCC; host or cells: JAR cells
- RUN_CONDITIONS: binned IC50

Solved entries:
COCCN(CCOC)c1nc(N2CC(O)(C(F)(F)F)C2)c2nc(N(CCOC)CCOC)nc(N3CCC(OC)CC3)c2n1 = < 100 nM
COCCN(CCOC)c1nc(N2CCCC(CO)C2)c2nc(N(CCOC)CCOC)nc(N3CCC(OC)CC3)c2n1 (stereo not shown) = 100 to 500 nM
COCCN(CCOC)c1nc(N2CC(O)(C(F)(F)F)C2)c2nc(N(CCOC)CCOC)nc(N3CCS(=O)(=O)CC3)c2n1 = 100 to 500 nM
COCCN(CCOC)c1nc(N2CCC(OC)CC2)c2nc(N(CCOC)CCOC)nc(NCc3ccc(F)c(C#N)c3)c2n1 = < 100 nM
COCCN(Cc1cc(OC)c(OC)c(OC)c1)c1nc(N2CCN(C)C(=O)C2)c2nc(N(CCOC)CCOC)nc(N3CCC(OC)CC3)c2n1 = < 100 nM
COCCN(CCOC)c1nc(N2CCC(OC)CC2)c2nc(N(CCOC)CCOC)nc(NC3CCCC3)c2n1 = 100 to 500 nM

Could you now look at the following molecule, please?
Task: Requested read-out IC50, target or system human ENT1 (Homo sapiens), entry `COCCN(CCOC)c1nc(N2CCC(OC)CC2)c2nc(N3CCN(c4ncccc4N)CC3)nc(N3CCN(C)C(=O)C3)c2n1`
Output: 100 to 500 nM
